Where do the numbers come from? From patent US20240368092A1.

Target: ratP2X7 (Rattus norvegicus)
Sequence (Q64663 whole entry): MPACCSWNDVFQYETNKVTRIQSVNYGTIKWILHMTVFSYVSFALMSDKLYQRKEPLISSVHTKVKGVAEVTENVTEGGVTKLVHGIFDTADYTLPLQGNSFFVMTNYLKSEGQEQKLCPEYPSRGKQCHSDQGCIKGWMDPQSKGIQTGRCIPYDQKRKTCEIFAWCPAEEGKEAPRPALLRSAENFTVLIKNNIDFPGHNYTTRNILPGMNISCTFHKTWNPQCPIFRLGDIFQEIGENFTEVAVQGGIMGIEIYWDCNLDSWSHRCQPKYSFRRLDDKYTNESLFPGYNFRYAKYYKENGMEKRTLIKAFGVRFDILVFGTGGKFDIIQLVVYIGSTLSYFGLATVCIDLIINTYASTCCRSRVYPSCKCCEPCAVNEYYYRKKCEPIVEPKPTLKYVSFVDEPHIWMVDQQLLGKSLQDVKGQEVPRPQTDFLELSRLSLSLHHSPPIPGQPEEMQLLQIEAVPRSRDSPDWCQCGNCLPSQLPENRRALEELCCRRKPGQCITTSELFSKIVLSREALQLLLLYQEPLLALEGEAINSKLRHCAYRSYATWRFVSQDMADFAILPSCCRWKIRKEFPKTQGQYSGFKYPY
Assay: P2X7 channel calcium-influx assay (Fluo-8, FLIPR TETRA), rat P2X7
Details: HEK-293 cells stably transfected with P2X7; Bz-ATP at EC80; low divalent cation buffer; read-out: ratP2X7 (activity range)
pIC50: −log10 of the molar value.
READOUT LABEL: pIC50

Example entries begin here.
{"MOLECULE": "Cn1nc(Cc2ccc(F)cc2Cl)n(CC2CCC(C(F)(F)F)CC2)c1=O (centres unmarked)", "SYSTEM NAME": "ratP2X7 (Rattus norvegicus)", "pIC50": "> 6.70"}
{"MOLECULE": "Cn1nc(Cc2ccc(F)cc2Cl)n(CCC2CCC(F)(F)CC2)c1=O", "SYSTEM NAME": "ratP2X7 (Rattus norvegicus)", "pIC50": "6.00 to 6.70"}
{"MOLECULE": "Cn1nc(CC2CCCCC2)n(Cc2ccnc(C(F)(F)F)c2)c1=O", "SYSTEM NAME": "ratP2X7 (Rattus norvegicus)", "pIC50": "4.52 to 5.00"}
{"MOLECULE": "Cn1nc(Cc2ccccc2F)n(CC2CCCCCC2)c1=O", "SYSTEM NAME": "ratP2X7 (Rattus norvegicus)", "pIC50": "> 6.70"}

With those in mind, consider the next molecule.
Returns the measured pIC50 for the input molecule. Input: O=c1n(CC(F)(F)F)nc(CC2CCCCCC2)n1Cc1c(F)cccc1Cl
> 6.70
